Test system: collagen 1 (COL1)
test description: WI-38 collagen 1 inhibition assay
Format: cell-based, human
condition parameters: Cellular EC50, WI-38 cells; values are classes of LogEC50
readout kind: COL1 Efficacy (LogEC50)

Recorded COL1 Efficacy (LogEC50), per entry:
INPUT: # COL1 Efficacy (LogEC50) lookup, item O=C(Nc1nc(-c2ccccc2Cl)cs1)C12CC(N3CCOCC3)(C1)C2 [Compound 416]
OUTPUT: ++ (++: −5 to −6)

INPUT: # COL1 Efficacy (LogEC50) lookup, item O=C(Nc1nc(-c2ccccc2Cl)cs1)c1ccc(N2CCOCC2)nn1 [compound 366]
OUTPUT: +++ (+++: <−6)

INPUT: # COL1 Efficacy (LogEC50) lookup, item COc1ccc(C(=O)Nc2nc(-c3cccnc3OC)cs2)cc1 [Compound 332]
OUTPUT: ++ (++: −5 to −6)

INPUT: # COL1 Efficacy (LogEC50) lookup, item O=C(Nc1nc(-c2ccc(Cl)cc2Cl)cs1)c1ccc(F)cc1 [Compound 308]
OUTPUT: ++ (++: −5 to −6)

INPUT: # COL1 Efficacy (LogEC50) lookup, item Cc1ccc(C(=O)Nc2nc(-c3ccccc3N3CCC3)cs2)cn1 [compound 350]
OUTPUT: − (−: inactive)

For every item in the list below, what is its measured COL1 Efficacy (LogEC50)?
1. O=C(Nc1nc(-c2ccccc2Cl)cs1)C1CC(N2CCOCC2)C1 (centres unmarked) [Compound 421]
2. O=C(Nc1nc(-c2ccccc2Cl)cs1)c1cnc(N2CCOCC2)nc1 [compound 358]
3. O=C(Nc1nc(C2CCOCC2)cs1)c1ccc(N2CCOCC2)cn1 [compound 393]
4. O=C(Nc1nc(-c2cc(Cl)sc2Cl)cs1)c1ccccc1 [compound 312]
5. O=C(Nc1nc(-c2ccccc2Cl)cs1)c1ccc(Br)cc1 [compound 310]

OUTPUT:
1: + (+: >−5); 2: − (−: inactive); 3: ++ (++: −5 to −6); 4: ++ (++: −5 to −6); 5: +++ (+++: <−6)

For every item in the list below, what is its measured COL1 Efficacy (LogEC50)?
1. O=C(Nc1nc(-c2ccccc2Cl)cs1)c1ccc(N2CCN(C(=O)CO)CC2)cn1 [Compound 445]
2. O=C(Nc1nc(-c2cccnc2)cs1)c1ccc(N2CCOCC2)cc1 [compound 352]
3. O=C(Nc1nc(-c2cc(Cl)sc2Cl)cs1)c1ccc(Cl)cc1 [compound 311]
4. O=C(Nc1nc(-c2ccccc2Cl)cs1)C1CC(C(=O)N2CCOCC2)C1 (centres unmarked) [compound 427]
5. CS(=O)(=O)N1CCN(C23CC(C(=O)Nc4nc(-c5ccccc5Cl)cs4)(C2)C3)CC1 [Compound 418]

OUTPUT:
+++ (+++: <−6)
+ (+: >−5)
++ (++: −5 to −6)
− (−: inactive)
++ (++: −5 to −6)

For every item in the list below, what is its measured COL1 Efficacy (LogEC50)?
1. O=C(Nc1nc(-c2ccccc2Cl)c[nH]1)c1ccc(N2CCOCC2)cn1 [Compound 404]
2. COc1ncc(C(=O)Nc2nc(-c3ccccc3Cl)cs2)cn1 [compound 345]
3. COc1ccc(C(=O)Nc2nc(-c3cncnc3)cs2)cc1 [Compound 338]
4. COc1ccc(C(=O)Nc2nc(-c3ccccc3Cl)cs2)cc1 [Compound 304]

OUTPUT:
+++ (+++: <−6)
+++ (+++: <−6)
+ (+: >−5)
+++ (+++: <−6)

For every item in the list below, what is its measured COL1 Efficacy (LogEC50)?
1. O=C(Nc1nc(-c2ccccc2Cl)cs1)c1ccc(N2CCOCC2)nc1 [compound 346]
2. CS(=O)(=O)N1CCN(C2CCC(C(=O)Nc3nc(-c4ccccc4Cl)cs3)CC2)CC1 (single isomer, unassigned) [Compound 434]
3. COc1ccc(C(=O)Nc2nc(-c3cc(C)cc(C)c3)cs2)cc1 [Compound 305]
4. CN1CCN(C(=O)c2ccc(C(=O)Nc3nc(-c4ccccc4Cl)cs3)nc2)CC1 [compound 437]

OUTPUT:
1: +++ (+++: <−6); 2: + (+: >−5); 3: ++ (++: −5 to −6); 4: ++ (++: −5 to −6)

For every item in the list below, what is its measured COL1 Efficacy (LogEC50)?
1. O=C(Nc1nc(-c2ccccn2)cs1)c1ccc(N2CCOCC2)cc1 [Compound 370]
2. O=C(Nc1nc(-c2ccccc2Cl)cs1)c1ccc(N2CCOCC2)cc1C(F)(F)F [Compound 411]
3. COCC(=O)N1CC2(C1)CN(c1ccc(C(=O)Nc3nc(-c4ccccc4Cl)cs3)nc1)C2 [Compound 450]
4. O=C(Nc1nc(-c2ccccc2Cl)cs1)c1cnc(N2CCOCC2)cn1 [compound 367]

OUTPUT:
["+ (+: >−5)", "+++ (+++: <−6)", "+++ (+++: <−6)", "+++ (+++: <−6)"]

For every item in the list below, what is its measured COL1 Efficacy (LogEC50)?
1. CS(=O)(=O)N1CCN([C@H]2C[C@@H](C(=O)Nc3nc(-c4ccccc4Cl)cs3)C2)CC1 [compound 423]
2. O=C(Nc1nc(-c2ccccc2Cl)cs1)c1ccc(N2CCC(O)CC2)cn1 [Compound 446]

OUTPUT:
["− (−: inactive)", "+++ (+++: <−6)"]
